All values here come from the NIST ThermoML archive (doi:10.1021/je0601208).

# measurement description: refractive index (Na D-line) (dimensionless); xn = mol fraction of the nth substance listed
# run conditions: 288.15 K; 100.5 kPa; Liquid; Standard Abbe refractometry; x1 = 0.8
Parameter: refractive index. Scope: all listed entries.
parameter measured: refractive index

compound="CCCCCC(=O)OCC [ethyl hexanoate] + CCO" assay_value=1.40579
compound="CCOC(=O)Cc1ccccc1 [ethyl phenylacetate] + CCO" assay_value=1.48865
compound="CC(=O)OCCC(C)C [3-methylbutyl ethanoate] + CCO" assay_value=1.39933
compound="CCCC(=O)OCCC(C)C [3-methylbutyl butanoate] + CCO" assay_value=1.40902
compound="CCOC(=O)c1ccccc1 [ethyl benzoate] + CCO" assay_value=1.49488
compound="CCCCCCCC(=O)OCC [ethyl octanoate] + CCO" assay_value=1.41599
